Recorded values, source the supplement of paper PMC3334620.

# TEST_SYSTEM: Yer184c (UniProt P39961)
# Sequence: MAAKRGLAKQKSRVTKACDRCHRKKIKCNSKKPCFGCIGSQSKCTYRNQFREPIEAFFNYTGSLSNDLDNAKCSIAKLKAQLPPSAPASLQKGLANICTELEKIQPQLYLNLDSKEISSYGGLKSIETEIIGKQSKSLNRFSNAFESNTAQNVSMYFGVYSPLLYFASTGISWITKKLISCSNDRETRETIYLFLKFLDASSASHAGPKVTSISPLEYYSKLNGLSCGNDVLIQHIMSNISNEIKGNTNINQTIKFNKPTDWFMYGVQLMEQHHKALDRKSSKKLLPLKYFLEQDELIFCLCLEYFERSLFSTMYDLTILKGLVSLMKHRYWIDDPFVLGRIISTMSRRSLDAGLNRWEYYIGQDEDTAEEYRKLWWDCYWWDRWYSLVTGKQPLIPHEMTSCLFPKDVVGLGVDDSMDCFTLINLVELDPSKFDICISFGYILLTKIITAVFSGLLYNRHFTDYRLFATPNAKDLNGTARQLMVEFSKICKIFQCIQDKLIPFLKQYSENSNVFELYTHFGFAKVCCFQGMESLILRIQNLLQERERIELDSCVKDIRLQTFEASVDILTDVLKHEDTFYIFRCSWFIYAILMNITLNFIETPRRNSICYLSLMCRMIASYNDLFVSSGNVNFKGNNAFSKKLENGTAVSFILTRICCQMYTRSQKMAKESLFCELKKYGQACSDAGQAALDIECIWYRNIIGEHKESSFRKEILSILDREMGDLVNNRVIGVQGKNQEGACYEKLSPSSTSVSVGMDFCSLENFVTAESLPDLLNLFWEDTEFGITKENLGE
# PROTOCOL_NOTES: PBM E-score (8-mer binding enrichment) (E-score (-0.5 to 0.5)); higher = stronger / more preferred TF binding
# CONDITION_CONTEXT: protein concentration: 100 nM; construct: GST-full length
Over roughly 33,000 sequences, “E-score (-0.5 to 0.5)” has its median near -0.016; the highest 2% begin near 0.3. The entries come from a sample that favours the highest values as a whole.
PROPERTY_MEASURED: PBM E-score

// known answers, use as guide
CGGCCTTC; 0.33
GTCGGGAA; 0.0333
CCTACTGA; -0.151

Kindly review the next sequence as well.
Ask | Could you tell me which PBM E-score is on file for AGGCTGAT ?
Reply | -0.161

----------
Consider the following sequences and their measured PBM E-score readings.
# TEST_SYSTEM: Yer184c (UniProt P39961)
# Sequence: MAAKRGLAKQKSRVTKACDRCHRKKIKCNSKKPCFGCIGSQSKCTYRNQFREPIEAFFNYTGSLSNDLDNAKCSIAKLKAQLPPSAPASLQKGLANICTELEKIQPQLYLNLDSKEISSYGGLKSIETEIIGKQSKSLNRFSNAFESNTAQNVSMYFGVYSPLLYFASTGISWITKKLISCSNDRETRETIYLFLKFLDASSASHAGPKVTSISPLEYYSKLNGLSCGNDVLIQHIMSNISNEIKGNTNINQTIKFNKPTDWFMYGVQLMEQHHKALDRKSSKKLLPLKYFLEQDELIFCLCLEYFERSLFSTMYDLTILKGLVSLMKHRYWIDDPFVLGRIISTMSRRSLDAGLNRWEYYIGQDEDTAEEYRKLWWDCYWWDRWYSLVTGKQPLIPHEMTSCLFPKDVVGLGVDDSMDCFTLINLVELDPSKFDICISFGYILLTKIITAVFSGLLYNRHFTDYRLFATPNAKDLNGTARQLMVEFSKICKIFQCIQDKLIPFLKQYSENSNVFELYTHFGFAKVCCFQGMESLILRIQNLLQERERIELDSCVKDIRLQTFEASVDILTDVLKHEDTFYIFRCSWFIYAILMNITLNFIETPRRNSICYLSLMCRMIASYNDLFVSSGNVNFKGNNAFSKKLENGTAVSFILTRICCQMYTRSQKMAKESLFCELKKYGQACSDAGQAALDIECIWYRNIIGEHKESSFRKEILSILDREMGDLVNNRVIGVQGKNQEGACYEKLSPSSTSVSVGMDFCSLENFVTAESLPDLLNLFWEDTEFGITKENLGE
# PROTOCOL_NOTES: PBM E-score (8-mer binding enrichment) (E-score (-0.5 to 0.5)); higher = stronger / more preferred TF binding
# CONDITION_CONTEXT: protein concentration: 100 nM; construct: GST-full length
Over roughly 33,000 sequences, “E-score (-0.5 to 0.5)” has its median near -0.016; the highest 2% begin near 0.3. For the sample, the highest values were picked, then their nearest neighbours and some sequences at random.
No unit in the answer, only the number.

// known answers, use as guide
CCGAATAA; 0.346
GATAAAAA; 0.29
GCTTCGTA; -0.148
AACAACCC; -0.0615

Ask | Could you tell me which PBM E-score is on file for GACTAGTA ?
Reply | -0.12

Ask | Now try CGAGCTCC .
Reply | 0.0493

----------
# TEST_SYSTEM: Yer184c (UniProt P39961)
# Sequence: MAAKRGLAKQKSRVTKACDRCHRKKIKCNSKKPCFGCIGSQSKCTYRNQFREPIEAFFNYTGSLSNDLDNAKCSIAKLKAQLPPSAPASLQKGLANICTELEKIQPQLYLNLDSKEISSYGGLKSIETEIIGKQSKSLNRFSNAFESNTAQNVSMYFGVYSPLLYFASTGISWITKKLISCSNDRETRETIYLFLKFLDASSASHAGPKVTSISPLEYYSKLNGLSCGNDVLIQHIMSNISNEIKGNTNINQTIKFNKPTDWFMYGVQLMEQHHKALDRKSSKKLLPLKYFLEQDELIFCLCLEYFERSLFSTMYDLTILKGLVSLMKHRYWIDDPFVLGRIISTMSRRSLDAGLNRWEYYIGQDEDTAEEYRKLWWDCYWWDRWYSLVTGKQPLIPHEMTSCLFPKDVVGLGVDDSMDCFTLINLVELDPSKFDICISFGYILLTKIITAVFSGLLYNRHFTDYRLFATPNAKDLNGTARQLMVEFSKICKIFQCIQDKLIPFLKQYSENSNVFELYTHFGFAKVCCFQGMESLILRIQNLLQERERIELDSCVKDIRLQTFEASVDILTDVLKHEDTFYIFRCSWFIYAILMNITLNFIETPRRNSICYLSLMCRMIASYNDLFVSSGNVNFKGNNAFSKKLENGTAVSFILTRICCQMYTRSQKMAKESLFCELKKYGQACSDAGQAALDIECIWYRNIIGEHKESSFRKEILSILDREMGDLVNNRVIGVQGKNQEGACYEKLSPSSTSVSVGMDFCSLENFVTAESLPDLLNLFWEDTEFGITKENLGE
# PROTOCOL_NOTES: PBM E-score (8-mer binding enrichment) (E-score (-0.5 to 0.5)); higher = stronger / more preferred TF binding
# CONDITION_CONTEXT: protein concentration: 100 nM; construct: GST-full length
Whole data set: some 33,000 sequences, median “E-score (-0.5 to 0.5)” near -0.016, cut for the highest 2% near 0.3. The full list was thinned out, with the highest values kept by preference.
PROPERTY_MEASURED: PBM E-score
No unit in the answer, only the number.

// known answers, use as guide
AGCGCCAA; -0.231
AGTATATG; 0.0296

Ask | Observed PBM E-score on Yer184c (UniProt P39961) for AGCTAGAT , please.
Reply | -0.104

----------
Consider the following sequences and their measured PBM E-score readings.
# TEST_SYSTEM: Yer184c (UniProt P39961)
# Sequence: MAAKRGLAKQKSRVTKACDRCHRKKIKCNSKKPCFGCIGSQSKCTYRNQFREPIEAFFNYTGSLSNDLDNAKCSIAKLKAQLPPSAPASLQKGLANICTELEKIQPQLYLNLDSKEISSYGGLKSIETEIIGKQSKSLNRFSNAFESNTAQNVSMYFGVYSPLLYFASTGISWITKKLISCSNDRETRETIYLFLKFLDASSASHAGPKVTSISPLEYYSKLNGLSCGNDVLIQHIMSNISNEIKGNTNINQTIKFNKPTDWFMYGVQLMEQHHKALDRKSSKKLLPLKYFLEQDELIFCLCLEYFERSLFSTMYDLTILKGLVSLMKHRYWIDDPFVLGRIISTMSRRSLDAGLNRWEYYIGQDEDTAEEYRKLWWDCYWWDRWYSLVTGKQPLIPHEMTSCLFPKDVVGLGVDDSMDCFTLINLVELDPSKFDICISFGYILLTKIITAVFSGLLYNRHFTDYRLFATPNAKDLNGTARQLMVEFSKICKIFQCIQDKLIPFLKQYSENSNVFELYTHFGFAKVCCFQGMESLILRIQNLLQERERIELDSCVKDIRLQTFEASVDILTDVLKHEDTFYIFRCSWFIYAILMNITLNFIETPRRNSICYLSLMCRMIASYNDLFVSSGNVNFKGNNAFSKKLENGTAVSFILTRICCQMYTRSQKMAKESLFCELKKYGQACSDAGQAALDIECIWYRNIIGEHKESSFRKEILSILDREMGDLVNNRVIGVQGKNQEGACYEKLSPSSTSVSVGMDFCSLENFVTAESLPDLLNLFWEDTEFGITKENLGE
# PROTOCOL_NOTES: PBM E-score (8-mer binding enrichment) (E-score (-0.5 to 0.5)); higher = stronger / more preferred TF binding
# CONDITION_CONTEXT: protein concentration: 100 nM; construct: GST-full length
Over roughly 33,000 sequences, “E-score (-0.5 to 0.5)” has its median near -0.016; the highest 2% begin near 0.3. Many of the other results were omitted from the sample, so the highest values are more common in it than they were.
No unit in the answer, only the number.

AGACCGAT; 0.0681
AGATTCCG; 0.338
AAATCCGC; -0.00733
GGACCGAA; 0.353
TGCGGAAA; 0.184
CAATCCGC; 0.095
ACCGGATA; 0.187
AAACCCCG; 0.0829

Ask | Could you tell me which PBM E-score is on file for AACTGCAA ?
Reply | 0.0848

Ask | Now try ATGTAGAA .
Reply | -0.0706

Ask | Now try CCAAGGTC .
Reply | -0.16
